We begin with a simple list: items and their reported z-score.
experiment: blockers of DNA damage checkpoint Chk1 activation – imaging, HeLa, hydroxyurea, phospho-Chk1 antibody, percent positive cells, primary screen (AID 1186); conditions: hydroxyurea-induced phospho-Chk1 immunofluorescence imaging, higher = more signal
Lab note: jot the number down without any unit.

Solved cases below.
Ask | For the compound CC(C)CNC(=O)[C@@]1(C)c2ccccc2C(=O)N(Cc2ccccc2)[C@H]1c1ccc(CO)cc1 , give its measured z-score value.
Reply | 0.105

Ask | For the compound C=CCC(OC(C)=O)[C@@H]1[C@@H](N(Cc2ccc(-c3cccc(C(F)(F)F)c3)o2)C(=O)c2cccc3ccccc23)c2cc(OCCCO)ccc2N1C(=O)c1ccc(-c2ccccc2)cc1 (stereo partly drawn) , give its measured z-score value.
Reply | -0.403

Ask | For the compound C#CCNS(=O)(=O)N(C)C , give its measured z-score value.
Reply | -0.271

Ask | For the compound CCCC=C(CCC)[C@@H](NC(=O)Cc1ccccc1)c1ccc(C(=O)OC)cc1 , give its measured z-score value.
Reply | 0.374

Ask | For the compound O=C1C[C@@](C(=O)O)(c2ccc([N+](=O)[O-])cc2)[C@@H](c2ccc(CO)cc2)N1CC12CC3CC(CC(C3)C1)C2 , give its measured z-score value.
Reply | -0.226

***
Ask | For the compound CCCCC(CC)C(O)C1C=CC2C(=O)NC(=O)C2N1Nc1ccccn1 (stereo not drawn) , give its measured z-score value.
Reply | 0.0438

Ask | For the compound CC(=O)NCCCC[C@@H]1NC(=O)[C@H]2C[C@@H](C(=O)NCCCCCN)[C@@H](c3cccc(OCCO)c3)N2C1=O , give its measured z-score value.
Reply | -1.11

Ask | For the compound COC(=O)C(CC#Cc1ccc2c(c1)[C@]1(C(=O)N2)[C@H](C(=O)N2CCc3cc(OC)c(OC)cc3C2)[C@H]2C(=O)O[C@H](c3ccccc3)[C@H](c3ccccc3)N2[C@@H]1c1ccc(O)cc1)C(=O)OC , give its measured z-score value.
Reply | 0.297

---

test: probe aNog binding to arrayed compounds – biochemical, biotinylated probe, 635/667 nm fluorescence, primary screen (AID 1115); conditions: small-molecule microarray, higher = more signal;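 further: probe is biotinylated aNog protein used at 0.15 µg/mL for 1 h at 4 C; z-score combines 667 nm fluorescence of each spot with its signal to noise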
Reported property: composite z-score
Lab note: jot the number down without any unit.

Solved cases below.
Ask | For the compound CN1C(=O)C2C=CC(C(O)COCc3ccccc3)N(Nc3ccccc3)C2C1=O (centres undefined) , give its measured composite z-score value.
Reply | 1.03

Ask | For the compound OCCCC1=CC(c2cccs2)N(Cc2cccc(OC(F)(F)F)c2)CC1 (centres undefined) , give its measured composite z-score value.
Reply | 1.41

***
Ask | For the compound COc1ccc(CCNC(=O)[C@@H]2c3ccccc3C(=O)N(Cc3ccccc3)[C@H]2c2ccc(CO)cc2)cc1 , give its measured composite z-score value.
Reply | -0.293

Ask | For the compound C[C@H]1NC(=O)C([C@@H](C)OCc2ccccc2)NC(=O)[C@@]23C(=O)N[C@@H](Cc4ccccc4)C2[C@H](C)[C@@]2(C)O[C@H]2C3/C=C/CC/C=C/CNC1=O (some centres undefined) , give its measured composite z-score value.
Reply | -0.37

---

test system: Fibrinogen (Alexa647-labelled); experiment: Alexa647-fibrinogen binding to printed small molecules – biochemical, small-molecule microarray, 635/667 nm fluorescence, artefact control for SMM control-protein annotation, profiling panel (AID 1131); details: fibrinogen-A647 binding fluorescence, higher = more signal;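 further: z-score merges 667 nm fluorescence with per-spot signal-to-noise over triplicate slides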
Param threshold (0.7) applies to composite z-score; output Condition met when value >= threshold, Condition not met when value < threshold.

For orientation, consider the following solved cases.
Ask | Tell me whether composite z-score is at least 0.7 here: C#CCNS(=O)(=O)N(C)C
Reply | Condition not met

Ask | Tell me whether composite z-score is at least 0.7 here: CCOC(=O)C1=CC[C@@H](c2ccccc2)N(S(=O)(=O)c2ccc(C)cc2)[C@H]1C=C(C)C
Reply | Condition met

Ask | Tell me whether composite z-score is at least 0.7 here: COc1cccc(C)c1NC(=O)O[C@H]1[C@H](OC(=O)Nc2ccccc2)[C@H](OC(=O)Nc2ccccc2)[C@@H](OC)O[C@@H]1CO
Reply | Condition not met

Ask | Tell me whether composite z-score is at least 0.7 here: CCOC(=O)C[C@H]1[C@H](OC(=O)Cc2ccc3c(c2)OCO3)[C@@H](NC(=O)c2ccccc2)c2cc(OCCCO)ccc2N1C(=O)c1ccccc1
Reply | Condition met

Ask | Tell me whether composite z-score is at least 0.7 here: CCCNC(=O)[C@@]1(Sc2ccc(C)cc2)CC(=O)N(Cc2ccccc2)[C@@H]1c1ccc(CO)cc1I
Reply | Condition not met

Then there is this molecule:
Ask | Tell me whether composite z-score is at least 0.7 here: COc1ccc([Si](C)(C)[C@@H]2[C@@H](CC(=O)N3Cc4ccccc4C[C@H]3CO)O[C@]3(C(=O)N(Cc4cccc(N5CCCCC5=O)c4)c4ccccc43)[C@H]2C)cc1
Reply | Condition not met
